Provenance of the data: PubChem BioAssay (NCI)

# Tested on: MDA-MB-468 breast
# protocol-summary: NCI-60 one-dose screen, 48 h (100 = growth as untreated, 0 = no growth, -100 = all killed)
# protocol-conditions: 10 µM unless noted
The panel holds about 83,000 compounds, 20% with a hit somewhere; the sample as a whole holds those more often.
# maps each entry to its growth
// units = %; emit number, no label

Some compounds with recorded growth:
# compound, readout-unit, growth
measured = [
    ("COc1cc(-c2ccc(/C=N/NC(=O)c3[nH]c4ccc(Br)cc4c3-c3ccccc3)o2)cc(OC)c1OC", "%", 88.6),
    ("Cc1ccc(Cc2cnc(NC(=O)c3ccc(/C=C4\\SC(=S)N(C)C4=O)cc3)s2)cc1", "%", 4.76),
    ("Cc1ccc([C@H]2C(C(=O)c3ccc(Cl)cc3)C3(N[C@@H]2c2ccccc2)C(=O)Nc2ccccc23)cc1 (some centres undefined)", "%", 1.9),
    ("COc1cc(CNC(=O)/C=C/c2ccc3c(c2)OCO3)ccc1OCc1cn(-c2ccc([N+](=O)[O-])cc2)nn1", "%", 72.4),
    ("COc1cc2c(c(OC)c1OC)C(=O)CC(c1cccc(NC(=O)c3cc(NC(=O)[C@H](C)N)ccc3Cl)c1)O2 (some centres undefined)", "%", 9.2),
    ("COC1=C[C@]23CCC(=O)N2CCc2cc4c(cc2[C@@H]3[C@@H]1OC(=O)[C@H](C)O)OCO4", "%", -17),
]

Look at this compound and give its reported growth. COc1cccc(COc2ccc(NC(=O)Nc3ccc(Cl)c(C(F)(F)F)c3)cc2)c1
2.67

Look at this compound and give its reported growth. CC1(c2cc3cc(Br)ccc3oc2=O)NC(=O)c2c(/C=C/C(=O)OC3CC4CCC3(C)C4(C)C)cccc2N1 (centres undefined)
13.4

Look at this compound and give its reported growth. N#Cc1cnn(C(=O)c2ccccc2Br)c1NC(=O)c1ccc(Br)cc1Cl
94.2

Look at this compound and give its reported growth. CN(C)c1nc(NCCNS(=O)(=O)c2ccc(C(=O)/C=C/c3ccc(F)cc3)cc2)nc(Nc2ccc(F)cc2)n1
-82.8

Look at this compound and give its reported growth. O=C(c1ccc(OCCN2CCOCC2)cc1)C1[C@H](c2ccc(Cl)cc2)[C@@H](c2ccccc2)NC12C(=O)Nc1ccc(Cl)cc12 (some centres undefined)
-7.83
